Taken from patent US20120277143A1.

Target: T1, human IL4 (human, UniProt P05112 25-153, biotinylated in the SPR and competition assays (sites not given))
T1 sequence: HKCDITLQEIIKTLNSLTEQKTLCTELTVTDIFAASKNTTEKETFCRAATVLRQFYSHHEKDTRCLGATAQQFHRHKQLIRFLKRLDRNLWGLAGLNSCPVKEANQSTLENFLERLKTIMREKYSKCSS
Assay: cell-based or functional assay
QUANTITY: A549/TARC IL4 IC50 (pM)
All answers are understood in pM, so give the number only.

Exercise: What A549/TARC IL4 IC50 value was documented for this binder, C06_53G6_V1_C01_6G9_V1 (designed binder, bispecific IL4/IL13 ankyrin repeat protein with (GGGGS)4 linker; also called bispecific AR protein) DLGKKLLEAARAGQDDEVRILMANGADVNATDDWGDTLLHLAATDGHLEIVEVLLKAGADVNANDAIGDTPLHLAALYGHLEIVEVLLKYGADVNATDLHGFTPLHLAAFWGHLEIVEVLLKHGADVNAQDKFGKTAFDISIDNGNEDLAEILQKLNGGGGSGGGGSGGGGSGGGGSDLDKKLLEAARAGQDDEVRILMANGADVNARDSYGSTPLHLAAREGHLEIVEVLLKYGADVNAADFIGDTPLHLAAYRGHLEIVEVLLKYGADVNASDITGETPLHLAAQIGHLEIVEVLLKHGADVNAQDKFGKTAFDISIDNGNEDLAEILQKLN ?
Solution: 50
